Sourced from patent US20260176289A1

TARGET ENTITY: UniProt:P01116
TEST METHOD NOTES: SOS-catalyzed nucleotide exchange assay (Procedure A, TR-FRET), KRAS-WT
Type: biochemical
CONDITION INFO: nucleotide exchange, read-out: KRAS WT GNE IC50
Below is a list of entries, each paired with its recorded IC50 value.
Number only, in nM; omit the unit.

Answered cases to consult:
C[C@@]1(O)COCCN(c2nc(OC[C@@]34CCCN3C[C@H](F)C4)nc3sc4c(-c5c6cn[nH]c6cc6cccc(Cl)c56)nccc4c23)C1 [Ex-161] : 15.2
C[C@@]1(O)COCCN(c2nc(OC[C@@]34CCCN3C[C@H](F)C4)nc3sc4c(-c5c(C(F)(F)F)c(Cl)cc6[nH]ncc56)nccc4c23)C1 [Ex-40] : 138
C[C@@]1(O)COCCN(c2nc(OC[C@@]34CCCN3C[C@H](F)C4)nc3sc4c(-c5c(C6(F)CC6)c(C(F)(F)F)cc6[nH]ncc56)nncc4c23)C1 [Ex-283] : 14.5
C=C(C)c1c(C(F)(F)F)cc2[nH]ncc2c1-c1nccc2c1sc1nc(OCC34CCCN3CC(F)C4)nc(N3CCOCC(C)(O)C3)c12 (stereo not drawn) [Ex-60] : 29
C/C=C(\C)c1c(C)cc2[nH]ncc2c1-c1nccc2c1sc1nc(OC[C@@]34CCCN3C[C@H](F)C4)nc(N3CCOC[C@@](C)(O)C3)c12 [Ex-65] : 184

Now, please, on to the next compound.
IN: Need IC50, item Cc1n[nH]c2cc(Cl)c(C(F)F)c(-c3nccc4c5c(N6CCOC[C@@](C)(O)C6)nc(OC[C@@]67CCCN6C[C@H](F)C7)nc5n(C)c34)c12 (single isomer, unassigned) [Ex-13]
OUT: 2750

---

TARGET ENTITY: KRAS G12D (amino acids 1-169) (Homo sapiens, UniProt P01116, G12D)
Sequence (P01116 with tags, fused parts or gaps isoform P01116-2 G12D): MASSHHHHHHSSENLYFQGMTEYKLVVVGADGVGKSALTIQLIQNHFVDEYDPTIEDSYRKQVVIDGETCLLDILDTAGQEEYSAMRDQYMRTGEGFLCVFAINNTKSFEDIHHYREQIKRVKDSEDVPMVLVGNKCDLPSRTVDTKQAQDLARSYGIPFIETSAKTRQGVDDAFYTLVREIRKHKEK
TEST METHOD NOTES: SOS-catalyzed nucleotide exchange assay (Procedure B, BODIPY FL GDP displacement), KRAS G12D
CONDITION INFO: read-out: KRAS G12D GNE IC50
QUANTITY NAME: pIC50
Hey, just a heads up that pIC50 is the negative log base 10 of the concentration in molar.

Answered cases to consult:
C[C@@H]1C[C@@H]1c1c(Cl)cc2[nH]ncc2c1-c1nccc2c1sc1nc(OC[C@@]34CCCN3C[C@H](F)C4)nc(N3CCOC[C@@](C)(O)C3)c12 (atropisomer, axis not shown; (aS)) : 7.66
Cc1cc2[nH]ncc2c(-c2nccc3c2sc2nc(OC[C@@]45CCCN4C[C@H](F)C5)nc(N4CCOCC(C)C4)c23)c1C(F)(F)F (some centres unmarked) : 5.44
CC1Cc2cc3[nH]ncc3c(-c3nccc4c3sc3nc(OC[C@@]56CCCN5C[C@H](F)C6)nc(N5CCOC[C@@](C)(O)C5)c34)c2C1 (some centres unmarked) : 7.05
CC1c2c(cc3[nH]ncc3c2-c2nccc3c2sc2nc(OC[C@@]45CCCN4C[C@H](F)C5)nc(N4CCOC[C@@](C)(O)C4)c23)CC1(F)F (single isomer, unassigned) : 8.42
C#Cc1n[nH]c2cc(C)c(C(F)(F)F)c(-c3nccc4c3sc3nc(OC[C@@]56CCCN5C[C@H](F)C6)nc(N5CCOC[C@@](C)(O)C5)c34)c12 : 6.41
CCCC1CCc2cc3[nH]ncc3c(-c3nccc4c3sc3nc(OC[C@@]56CCCN5C[C@H](F)C6)nc(N5CCOC[C@@](C)(O)C5)c34)c21 (some centres unmarked) : 7.30

IN: Need pIC50, item CC1(F)c2c(cc3[nH]ncc3c2-c2nccc3c2sc2nc(OC[C@@]45CCCN4C[C@H](F)C5)nc(N4CCOC[C@@](C)(O)C4)c23)CC1(F)F (single isomer, unassigned)
OUT: 7.56

IN: Repeat with Cc1cc2[nH]ncc2c(-c2nccn3c2c(C)c2nc(OC[C@@]45CCCN4C[C@H](F)C5)nc(N4CCOC[C@@](C)(O)C4)c23)c1C1CC1
OUT: 7.30

IN: Repeat with CO[C@]1(C)COCCN(c2nc(OC[C@@]34CCCN3C[C@H](F)C4)nc3sc4c(-c5c(C(F)(F)F)c(C)cc6[nH]ncc56)nccc4c23)C1
OUT: 6.31

IN: Repeat with Cc1cc2[nH]ncc2c(-c2nccc3c2sc2nc(OC[C@@]45CCCN4C[C@H](F)C5)nc(N)c23)c1C(F)(F)F
OUT: 5.52

IN: Repeat with CC1(C)Cc2cc3[nH]ncc3c(-c3nccc4c3sc3nc(OC[C@@]56CCCN5C[C@H](F)C6)nc(N5CCOC[C@@](C)(O)C5)c34)c2C1
OUT: 6.56

---

TARGET ENTITY: KRAS-G12V (Homo sapiens, UniProt P01116, G12V)
Sequence (P01116 with tags, fused parts or gaps isoform P01116-2 G12V): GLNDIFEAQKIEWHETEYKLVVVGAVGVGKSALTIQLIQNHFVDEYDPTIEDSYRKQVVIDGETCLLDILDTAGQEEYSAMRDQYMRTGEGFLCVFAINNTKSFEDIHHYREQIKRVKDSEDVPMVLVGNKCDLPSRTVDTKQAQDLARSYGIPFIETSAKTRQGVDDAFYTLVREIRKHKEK
TEST METHOD NOTES: SOS-catalyzed nucleotide exchange assay (Procedure A, TR-FRET), KRAS-G12V
Format: biochemical
CONDITION INFO: nucleotide exchange, read-out: KRAS G12V GNE IC50
QUANTITY NAME: IC50 (nM)
Number only, in nM; omit the unit.

Answered cases to consult:
Cc1cc2[nH]ncc2c(-c2nccn3c2c(Cl)c2nc(OC[C@@]45CCCN4C[C@H](F)C5)nc(N4CCOC[C@@](C)(O)C4)c23)c1C1CC1 (single isomer, unassigned) [Ex-297] : 57.6
C[C@@]1(O)COCCN(c2nc(OC[C@@]34CCCN3C/C(=C/F)C4)nc3sc4c(-c5c(C6CC6)c(Cl)cc6[nH]ncc56)nccc4c23)C1 [Ex-209] : 12

IN: Request - read-out IC50 | tested on KRAS-G12V (Homo sapiens, UniProt P01116, G12V) | compound C[C@@]1(O)COCCN(c2nc(OC[C@@]34CCCN3C[C@H](F)C4)nc3sc4c(-c5cccc(Cl)c5C5CC5)nncc4c23)C1 [Ex-284]
OUT: 138

---

Below is a list of entries, each paired with its recorded IC50 value.
TARGET ENTITY: KRAS-G12V (Homo sapiens, UniProt P01116, G12V)
TEST METHOD NOTES: SOS-catalyzed nucleotide exchange assay (Procedure A, TR-FRET), KRAS-G12V
Assay type: biochemical
CONDITION INFO: nucleotide exchange, read-out: KRAS G12V GNE IC50
Number only, in nM; omit the unit.

Answered cases to consult:
Cc1cc2[nH]nc(C)c2c(-c2nccc3c4c(N5CCOC[C@@](C)(O)C5)nc(OC[C@@]56CCCN5C[C@H](F)C6)nc4n(C)c23)c1C(F)F (single isomer, unassigned) [Ex-8] : 1650
Cc1cc2[nH]ncc2c(-c2nccc3c2sc2nc(OC[C@@]45CCCN4C[C@H](F)C5)nc(N4CCOCC(O)(CF)C4)c23)c1C(F)(F)F (stereo partly drawn) [Ex-202] : 229
C[C@@]1(O)COCCN(c2nc(OC[C@]3(CN4CC5CC5C4)CC3(F)F)nc3sc4c(-c5c(C6(F)CC6)c(Cl)cc6[nH]ncc56)nccc4c23)C1 (stereo partly drawn) [Ex-237] : 32.9

IN: Need IC50, item Cc1cc2[nH]nc(C#N)c2c(-c2nccc3c4c(N5CCOC[C@@](C)(O)C5)nc(OC[C@@]56CCCN5C[C@H](F)C6)nc4n(C)c23)c1C(F)F (single isomer, unassigned) [Ex-9]
OUT: 575

IN: Repeat with CN1CCC[C@H]1COc1nc(N2CCOC[C@@](C)(O)C2)c2c(n1)sc1c(-c3c(C4CC4)c(Cl)cc4[nH]ncc34)nccc12 [Ex-80]
OUT: 42

IN: Repeat with C/C=C(\C)c1c(C)cc2[nH]ncc2c1-c1nccc2c1sc1nc(OC[C@@]34CCCN3C[C@H](F)C4)nc(N3CCOC[C@@](C)(O)C3)c12 [Ex-65]
OUT: 65.3

---

Below is a list of entries, each paired with its recorded IC50 value.
TARGET ENTITY: KRAS-G12V (Homo sapiens, UniProt P01116, G12V)
TEST METHOD NOTES: SOS-catalyzed nucleotide exchange assay (Procedure A, TR-FRET), KRAS-G12V
Type: biochemical
CONDITION INFO: nucleotide exchange, read-out: KRAS G12V GNE IC50
Number only, in nM; omit the unit.

Answered cases to consult:
CN1CCC[C@@H]1COc1nc(N2CCOC[C@@](C)(O)C2)c2c(n1)sc1c(-c3c(C4CC4)c(C(F)(F)F)cc4[nH]ncc34)nccc12 [Ex-81] : 86.2
C[C@@H]1CN(C[C@@]2(COc3nc(N4CCOC[C@@](C)(O)C4)c4c(n3)sc3c(-c5c(C6(F)CC6)c(Cl)cc6[nH]ncc56)nccc34)CC2(F)F)C[C@H](C)O1 [Ex-246] : 275

IN: Need IC50, item C[C@@]1(O)COCCN(c2nc(OC[C@]3(CN4CC5(COC5)C4)CC3(F)F)nc3sc4c(-c5c(C6CC6)c(Cl)cc6[nH]ncc56)nccc4c23)C1 [Ex-213]
OUT: 11.2

IN: Repeat with C[C@@]1(O)COCCN(c2nc(OC[C@@]34CCCN3C[C@H](F)C4)nc3sc4c(-c5c6c(cc7[nH]ncc57)C5CC5C6)nccc4c23)C1 (stereo partly shown) [Ex-91]
OUT: 103

IN: Repeat with C=C1CN2C[C@@H](F)C[C@@]2(COc2nc(N3CCOC[C@@](C)(O)C3)c3c(n2)sc2c(-c4c(C5CC5)c(Cl)cc5[nH]ncc45)nccc23)C1 [Ex-222]
OUT: 46
